- target_or_test_system: Adenosine receptor A3 (Homo sapiens)
- Sequence (whole entry): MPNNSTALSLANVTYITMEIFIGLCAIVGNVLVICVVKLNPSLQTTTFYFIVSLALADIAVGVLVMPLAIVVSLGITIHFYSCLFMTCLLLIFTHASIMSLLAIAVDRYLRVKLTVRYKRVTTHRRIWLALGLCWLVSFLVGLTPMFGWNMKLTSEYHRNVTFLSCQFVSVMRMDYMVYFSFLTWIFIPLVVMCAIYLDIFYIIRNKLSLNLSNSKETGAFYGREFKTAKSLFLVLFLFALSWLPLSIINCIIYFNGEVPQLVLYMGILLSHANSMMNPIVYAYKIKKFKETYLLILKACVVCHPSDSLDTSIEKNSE
- test_name: Displacement of [3H]NECA from adenosine A3 receptor expressed in human HeLa cell membranes at 1 uM incubated for 180 mins by scintillation counting method
- test_settings: Cell membrane
assay_endpoint: inhibition (%)

- compound: "CC1=C(C(=O)SC(C)C)C(c2ccco2)NC(=O)N1 (racemic)"
  value_reported: 1
- compound: "CCC(C)OC(=O)C1=C(C)NC(=O)NC1c1cccs1 (racemic)"
  value_reported: 7
- compound: "CC(=O)C1=C(C)NC(=O)NC1c1cccs1 (racemic)"
  value_reported: 3
- compound: "CCC(C)OC(=O)C1=C(C)NC(=O)NC1c1ccco1 (racemic)"
  value_reported: 3
- compound: "COC(=O)C1=C(C)N=C(S)NC1c1ccco1 (racemic)"
  value_reported: 1
- compound: "CCC(CC)OC(=O)C1=C(C)NC(=O)NC1c1ccoc1 (racemic)"
  value_reported: 5
- compound: "CC1=C(C(=O)OCC2CC2)C(c2ccco2)NC(=O)N1 (racemic)"
  value_reported: 1
- compound: "CC1=C(C(=O)OCc2ccccc2)C(c2ccco2)NC(=S)N1 (racemic)"
  value_reported: 4
- compound: "CC1=C(C(=O)OC2CCC2)C(c2ccsc2)NC(=O)N1 (racemic)"
  value_reported: 3
- compound: "CCN(CC)C(=O)C1=C(C)NC(=O)NC1c1cccs1 (racemic)"
  value_reported: 31
- compound: "CC(=O)C1=C(C)NC(=O)NC1c1ccoc1 (racemic)"
  value_reported: 2
- compound: "CCCOC(=O)C1=C(C)NC(=S)NC1c1ccoc1 (racemic)"
  value_reported: 3
- compound: "CC1=C(C(=O)OCC2CCC2)C(c2ccoc2)NC(=O)N1 (racemic)"
  value_reported: 2
- compound: "CC1=C(C(=O)OC2CCCC2)C(c2cccs2)NC(=O)N1 (racemic)"
  value_reported: 1
- compound: "CCSC(=O)C1=C(C)NC(=O)NC1c1ccsc1 (racemic)"
  value_reported: 2
- compound: "CCC(CC)OC(=O)C1=C(C)NC(=O)NC1c1cccs1 (racemic)"
  value_reported: 1
- compound: "CCSC(=O)C1=C(C)NC(=O)NC1c1cccs1 (racemic)"
  value_reported: 1
- compound: "CC1=C(C(=O)CC(C)C)C(c2ccco2)NC(=O)N1 (racemic)"
  value_reported: 31
- compound: "CC1=C(C(=O)OC(C)(C)C)C(c2cccs2)NC(=O)N1 (racemic)"
  value_reported: 7
- compound: "CC1=C(C(=O)OCC2CCC2)C(c2ccsc2)NC(=O)N1 (racemic)"
  value_reported: 2
- compound: "CC1=C(C(=O)OC(C)(C)C)C(c2ccco2)NC(=O)N1C (racemic)"
  value_reported: 54
- compound: "CCCOC(=O)C1=C(C)NC(=S)NC1c1cccs1 (racemic)"
  value_reported: 10
- compound: "CCCOC(=O)C1=C(C)NC(=O)NC1c1ccoc1 (racemic)"
  value_reported: 11
- compound: "CCSC(=O)C1=C(C)NC(=O)NC1c1ccoc1 (racemic)"
  value_reported: 1
- compound: "CCOC(=O)C1=C(C)NC(=O)N[C@H]1c1ccsc1"
  value_reported: 3
- compound: "CC1=C(C(=O)SC(C)C)C(c2cccs2)NC(=O)N1 (racemic)"
  value_reported: 1
- compound: "CC1=C(c2ncc(C)o2)C(c2cccs2)NC(=O)N1 (racemic)"
  value_reported: 1
- compound: "CC1=C(C(=O)OC(C)(C)C)C(c2ccoc2)NC(=S)N1 (racemic)"
  value_reported: 19
- compound: "CC1=C(C(=O)OC2CCCC2)C(c2ccco2)NC(=O)N1 (racemic)"
  value_reported: 14
- compound: "CC1=C(c2ncc(C)o2)C(c2ccsc2)NC(=O)N1 (racemic)"
  value_reported: 2
- compound: "CC1=C(C(N)=O)C(c2ccoc2)NC(=O)N1 (racemic)"
  value_reported: 2
- compound: "CCCC(=O)C1=C(C)NC(=O)NC1c1cccs1 (racemic)"
  value_reported: 2
- compound: "CC1=C(C(=O)OCc2ccccc2)C(c2ccco2)NC(=O)N1C (racemic)"
  value_reported: 11
- compound: "CC1=C(C(=O)OC(C)C)C(c2cccs2)NC(=O)N1C (racemic)"
  value_reported: 17
- compound: "COC(=O)C1=C(C)NC(=S)NC1c1cccs1 (racemic)"
  value_reported: 1
- compound: "COC(=O)C1=C(C)NC(=O)NC1c1cccs1 (racemic)"
  value_reported: 3
- compound: "CC1=C(c2ncc(C)o2)C(c2ccco2)NC(=O)N1 (racemic)"
  value_reported: 4
- compound: "CC1=C(C(=O)OCC2CC2)C(c2ccsc2)NC(=O)N1 (racemic)"
  value_reported: 3
- compound: "CC1=C(C(=O)OCC2CC2)C(c2ccoc2)NC(=O)N1 (racemic)"
  value_reported: 3
- compound: "CC1=C(C(=O)OCc2ccccc2)C(c2ccsc2)NC(=S)N1 (racemic)"
  value_reported: 2
- compound: "CC1=C(C(=O)OCc2ccccc2)C(c2cccs2)NC(=S)N1 (racemic)"
  value_reported: 24
- compound: "CC1=C(C(=O)OCC(C)C)C(c2cccs2)NC(S)=N1 (racemic)"
  value_reported: 4
- compound: "CC1=C(C(=O)OCC(C)C)C(c2ccco2)NC(=O)N1C (racemic)"
  value_reported: 23
